- system tested: NAD-dependent deacetylase Sirtuin 1 (human)
- Sequence (Q96EB6 2-747 limits assumed): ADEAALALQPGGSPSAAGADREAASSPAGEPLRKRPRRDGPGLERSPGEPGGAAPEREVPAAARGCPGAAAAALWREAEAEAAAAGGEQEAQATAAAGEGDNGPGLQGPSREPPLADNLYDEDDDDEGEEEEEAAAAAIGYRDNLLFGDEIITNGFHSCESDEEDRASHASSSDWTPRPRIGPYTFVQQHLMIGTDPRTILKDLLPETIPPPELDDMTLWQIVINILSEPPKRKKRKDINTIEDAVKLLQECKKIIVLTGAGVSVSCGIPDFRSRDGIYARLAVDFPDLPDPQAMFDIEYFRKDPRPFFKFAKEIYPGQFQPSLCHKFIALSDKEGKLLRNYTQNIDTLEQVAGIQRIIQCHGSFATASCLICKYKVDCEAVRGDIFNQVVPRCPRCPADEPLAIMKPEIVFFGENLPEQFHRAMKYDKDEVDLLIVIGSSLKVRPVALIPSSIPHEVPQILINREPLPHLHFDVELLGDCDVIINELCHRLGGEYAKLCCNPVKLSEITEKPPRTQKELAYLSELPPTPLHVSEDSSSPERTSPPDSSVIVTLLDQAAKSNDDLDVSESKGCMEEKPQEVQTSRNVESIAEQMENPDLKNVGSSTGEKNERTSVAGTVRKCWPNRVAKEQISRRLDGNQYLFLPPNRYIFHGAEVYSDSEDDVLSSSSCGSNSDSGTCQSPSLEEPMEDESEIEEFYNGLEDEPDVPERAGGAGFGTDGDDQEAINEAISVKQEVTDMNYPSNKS
- experiment: primary screen, delta tm
- Design: single well (n = 1)
- applied conditions: 10 µM
In all, about 3,200 compounds were measured (“TSA(without NAD+) / Primary screening (TSA) / delta Tm (K)”: median about -0.07, highest 2% from about 0.37 on). The sample holds the highest values, similar compounds and a random draw of the others, so the mix is not that of the screen.
Kindly state TSA(without NAD+) / Primary screening (TSA) / delta Tm (K) for each of the entries shown.
Give bare numbers, in K.

These recorded examples may help you get a feel for the data.
{"compound": "Cc1nc(N2CCC(C(N)=O)CC2)c2c3c(sc2n1)CCCCC3", "value units": "K", "readout number": 0.78}
{"compound": "COc1ccc(NC(=O)C2=COCCO2)cc1Cc1ccccc1", "value units": "K", "readout number": 0.45}
{"compound": "Cc1nc(N2CCC(C(N)=O)CC2)c2c3c(sc2n1)CCCC3", "value units": "K", "readout number": 0.56}
{"compound": "CCN(CC)CCNC(=O)c1ccc(NC(=O)CC2CCCC2)cc1", "value units": "K", "readout number": 0.07}
{"compound": "CC(C)(C)c1ccc(OCC(=O)NNC(=O)c2cccnc2O)cc1", "value units": "K", "readout number": 0.17}
{"compound": "O=C1NC(=S)NC(=O)C1=NNc1c(F)cccc1F", "value units": "K", "readout number": -0.08}
{"compound": "Cc1ccc(Nc2nnc(SCC(=O)NC(=O)NCc3ccco3)s2)cc1", "value units": "K", "readout number": 0.07}
{"compound": "Cc1ccc(NC(=O)CN2CCN(C(=O)c3ccc(-c4ccc(Cl)cc4)o3)CC2)cc1", "value units": "K", "readout number": 0.08}
{"compound": "Cc1ccc(C(=Nc2c(C)cc(C)cc2C)c2ccc(C)cc2)cc1", "value units": "K", "readout number": -0.04}
{"compound": "Oc1ccccc1/C=N/c1ccccc1O", "value units": "K", "readout number": -0.13}

Give measured TSA(without NAD+) / Primary screening (TSA) / delta Tm (K) for every item shown.
1. CCCCOC(=O)c1ccc(NC(=O)COC(=O)CNC(=O)C23CC4CC(CC(C4)C2)C3)cc1
2. CC(=O)N1N=C(c2ccc(O)cc2)CC1c1ccccc1 (centres unmarked)
3. CN(CC(=O)Nc1cccc2ccccc12)C(=O)C1=COCCO1
4. CC(C#N)(NC(=O)CNc1cccnc1-c1ccccc1)C1CC1 (centres unmarked)

Result:
1: 0.48; 2: 0.07; 3: -0.23; 4: 0.08
